- assay_system: T1, human IL-2Rβ (human, UniProt P14784 27-240, limits assumed)
- T1 construct: also called hIL-2Rβ; IL-2 receptor beta
- T1 sequence (looked up): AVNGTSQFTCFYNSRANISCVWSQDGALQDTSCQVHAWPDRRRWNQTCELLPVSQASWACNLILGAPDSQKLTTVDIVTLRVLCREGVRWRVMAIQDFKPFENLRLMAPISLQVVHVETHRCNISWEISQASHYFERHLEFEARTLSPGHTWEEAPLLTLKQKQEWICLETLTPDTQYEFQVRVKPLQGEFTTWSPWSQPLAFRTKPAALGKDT
- protocol_details: SPR, steady state
metric_name: Kd

• hIL-15 V49R/K10M (ligand) NWVNVISDLMKIEDLIQSMHIDATLYTESDVHPSCKVTAMKCFLLELQRISLESGDASIHDTVENLIILANNSLSSNGNVTESGCKECEELEEKNIKEFLQSFVHIVQMFINTGGGGSGHHHHHHHHGGGLNDIFEAQKIEWHE = 391 nM
• hIL-15 V49R/N1A (ligand) AWVNVISDLKKIEDLIQSMHIDATLYTESDVHPSCKVTAMKCFLLELQRISLESGDASIHDTVENLIILANNSLSSNGNVTESGCKECEELEEKNIKEFLQSFVHIVQMFINTGGGGSGHHHHHHHHGGGLNDIFEAQKIEWHE = 398 nM
• hIL-15 V49R/H32M (ligand) NWVNVISDLKKIEDLIQSMHIDATLYTESDVMPSCKVTAMKCFLLELQRISLESGDASIHDTVENLIILANNSLSSNGNVTESGCKECEELEEKNIKEFLQSFVHIVQMFINTGGGGSGHHHHHHHHGGGLNDIFEAQKIEWHE = 161 nM
• hIL-15 V49R/I111K (ligand) NWVNVISDLKKIEDLIQSMHIDATLYTESDVHPSCKVTAMKCFLLELQRISLESGDASIHDTVENLIILANNSLSSNGNVTESGCKECEELEEKNIKEFLQSFVHIVQMFKNTGGGGSGHHHHHHHHGGGLNDIFEAQKIEWHE = 397 nM
• hIL-15 V49R/K10Q (ligand) NWVNVISDLQKIEDLIQSMHIDATLYTESDVHPSCKVTAMKCFLLELQRISLESGDASIHDTVENLIILANNSLSSNGNVTESGCKECEELEEKNIKEFLQSFVHIVQMFINTGGGGSGHHHHHHHHGGGLNDIFEAQKIEWHE = 250 nM
• hIL-15 V49R/L69S (ligand) NWVNVISDLKKIEDLIQSMHIDATLYTESDVHPSCKVTAMKCFLLELQRISLESGDASIHDTVENLIISANNSLSSNGNVTESGCKECEELEEKNIKEFLQSFVHIVQMFINTGGGGSGHHHHHHHHGGGLNDIFEAQKIEWHE = > 500 nM
• hIL-15 V49R/H32S (ligand) NWVNVISDLKKIEDLIQSMHIDATLYTESDVSPSCKVTAMKCFLLELQRISLESGDASIHDTVENLIILANNSLSSNGNVTESGCKECEELEEKNIKEFLQSFVHIVQMFINTGGGGSGHHHHHHHHGGGLNDIFEAQKIEWHE = 176 nM

Measured values drawn from patent US20210324028A1 for this set.
